# TARGET_SYSTEM: Calmodulin-1 (Homo sapiens) (UniProt P0DP23)
# TEST_METHOD_NOTES: small molecules binding Ca-loaded calmodulin-1 – biochemical, small-molecule microarray, Cy5-labelled CALM1, plus calcium, artefact control for SMM control-protein annotation, profiling panel (AID 1112);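 note: score merges spot fluorescence with signal to noise from triplicate slides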
# MEASUREMENT_CONDITIONS: Cy5-CALM1 binding fluorescence, higher = more signal
PROPERTY: composite z-score

Prompt: GET composite z-score | system: Calmodulin-1 (Homo sapiens) (UniProt P0DP23) | item: CN1C(=O)C2C(C1=O)C1C=C(c3ccc(CO)cc3)C2C(C2CC2)N1Cc1sc2ccccc2c1Cl (stereo unspecified)
Completion: 0.398

Prompt: // fetch composite z-score for C[n+]1ccc2ccc(O)cc2c1 ; system: Calmodulin-1 (Homo sapiens) (UniProt P0DP23)
Completion: -1.61

Prompt: For Calmodulin-1 (Homo sapiens) (UniProt P0DP23), give the measured composite z-score of the entry CCCC[C@H]1OB(O)C[C@H]2C1=C(C)Cn1c(=O)n(-c3ccccc3)c(=O)n12
Completion: -0.406

Prompt: For Calmodulin-1 (Homo sapiens) (UniProt P0DP23), give the measured composite z-score of the entry CCN(CC)c1ccc(N2CC=CC34O[C@@H]5/C=C\CCCOC(=O)C5[C@H]3C(=O)N(CCCO)[C@@H]4C2=O)cc1 (stereo partly specified)
Completion: 0.479

Prompt: Give composite z-score for this entry on Calmodulin-1 (Homo sapiens) (UniProt P0DP23): [N-]=[N+]=Nc1ccccc1[C@@H]1OC(c2ccc(OCCCO)cc2)=N[C@]1(CCS(=O)(=O)c1ccccc1)C(=O)O
Completion: 0.304

Prompt: Please tell me the measured composite z-score for CCCC[C@H]1C[C@@H]1[C@@H]1N(P(=O)(c2ccccc2)c2ccccc2)[C@](CO)(c2ccccc2)CC12CC2 ; system: Calmodulin-1 (Homo sapiens) (UniProt P0DP23).
Completion: 1.08

Prompt: State composite z-score (Calmodulin-1 (Homo sapiens) (UniProt P0DP23)) of Cc1ccc(S[C@]2(C(=O)NCc3ccccc3)CC(=O)N(Cc3cc(C(F)(F)F)cc(C(F)(F)F)c3)[C@@H]2c2ccc(CO)cc2)cc1 .
Completion: 0.187

Prompt: Report composite z-score on Calmodulin-1 (Homo sapiens) (UniProt P0DP23) for this entry: CO[C@H]1O[C@H](CO)[C@@H](OC(=O)Nc2cccc(F)c2)[C@H](OC(=O)Nc2ccccc2-c2ccccc2)[C@@H]1OC(=O)Nc1ccccc1-c1ccccc1
Completion: 0.283

Prompt: Provide Calmodulin-1 (Homo sapiens) (UniProt P0DP23) composite z-score reading for CN1C(=O)C2C=CC(C(O)C(c3ccccc3)c3ccccc3)N(Nc3ccccc3)C2C1=O (stereo unspecified) .
Completion: 0.567

Prompt: Consider the molecule C=CCN1C(=O)[C@@]2(O[C@@H](CCO)[C@H]([Si](C)(C)c3ccc(OC)cc3)[C@H]2C)c2cc(N3C(=O)COc4ccccc43)ccc21 tested on Calmodulin-1 (Homo sapiens) (UniProt P0DP23); state its composite z-score.
Completion: -0.334

Prompt: Give composite z-score for C=CC[C@]1(C(=O)O)N=C(c2ccc(OCCCO)cc2)O[C@H]1c1ccccc1CN=[N+]=[N-] tested on Calmodulin-1 (Homo sapiens) (UniProt P0DP23).
Completion: 0.939

Prompt: Provide the reported composite z-score (system: Calmodulin-1 (Homo sapiens) (UniProt P0DP23)) for C=C(C(=O)CC[C@@H](OC(=O)c1cccnc1)c1ccc(CO)o1)C(C)C
Completion: -0.835

Prompt: Look up Calmodulin-1 (Homo sapiens) (UniProt P0DP23) data: composite z-score of C[N+](C)(C)CCCC[C@@H]1NC(=O)[C@@H]2C[C@H](C(=O)NCCCCCCNC(=O)CS)[C@H](c3cccc(OCCO)c3)N2C1=O , then report it.
Completion: -0.467

Prompt: Write composite z-score of C=CC[C@]1(C(=O)NCCN2CCOCC2)N=C(c2ccc(OCCCO)cc2)O[C@H]1c1ccccc1N=[N+]=[N-] ; system used: Calmodulin-1 (Homo sapiens) (UniProt P0DP23)
Completion: -0.0083

Prompt: Report composite z-score from Calmodulin-1 (Homo sapiens) (UniProt P0DP23) testing of CC1(C)C(=O)C(c2ccccc2)=C2CN3C(=O)N(CCc4ccccc4)C(=O)C3(Cc3ccccc3)C=C21 (stereo unspecified)
Completion: 0.9

Prompt: Identify measured composite z-score obtained with Calmodulin-1 (Homo sapiens) (UniProt P0DP23) for C=CCC(OC(C)=O)[C@@H]1[C@@H](N(Cc2ccc(-c3cccc(C(F)(F)F)c3)o2)C(=O)Cc2ccc(OC)cc2)c2cc(OCCCO)ccc2N1C(=O)Cc1ccc(OC)cc1 (stereo partly specified) .
Completion: -1.26
